Entry source: patent US12091426B2

- TARGET_UNDER_TEST: HPK1 (Homo sapiens, UniProt Q92918)
- Construct: A HiBiT tag was introduced by CRISPR on the N terminus of HPK1 in Jurkat cells; host or cells: Jurkat cells (ATCC TIB-152), monoclonal line with CRISPR knock-in of HiBiT at the endogenous HPK1 locus
- Sequence (Q92918 whole entry): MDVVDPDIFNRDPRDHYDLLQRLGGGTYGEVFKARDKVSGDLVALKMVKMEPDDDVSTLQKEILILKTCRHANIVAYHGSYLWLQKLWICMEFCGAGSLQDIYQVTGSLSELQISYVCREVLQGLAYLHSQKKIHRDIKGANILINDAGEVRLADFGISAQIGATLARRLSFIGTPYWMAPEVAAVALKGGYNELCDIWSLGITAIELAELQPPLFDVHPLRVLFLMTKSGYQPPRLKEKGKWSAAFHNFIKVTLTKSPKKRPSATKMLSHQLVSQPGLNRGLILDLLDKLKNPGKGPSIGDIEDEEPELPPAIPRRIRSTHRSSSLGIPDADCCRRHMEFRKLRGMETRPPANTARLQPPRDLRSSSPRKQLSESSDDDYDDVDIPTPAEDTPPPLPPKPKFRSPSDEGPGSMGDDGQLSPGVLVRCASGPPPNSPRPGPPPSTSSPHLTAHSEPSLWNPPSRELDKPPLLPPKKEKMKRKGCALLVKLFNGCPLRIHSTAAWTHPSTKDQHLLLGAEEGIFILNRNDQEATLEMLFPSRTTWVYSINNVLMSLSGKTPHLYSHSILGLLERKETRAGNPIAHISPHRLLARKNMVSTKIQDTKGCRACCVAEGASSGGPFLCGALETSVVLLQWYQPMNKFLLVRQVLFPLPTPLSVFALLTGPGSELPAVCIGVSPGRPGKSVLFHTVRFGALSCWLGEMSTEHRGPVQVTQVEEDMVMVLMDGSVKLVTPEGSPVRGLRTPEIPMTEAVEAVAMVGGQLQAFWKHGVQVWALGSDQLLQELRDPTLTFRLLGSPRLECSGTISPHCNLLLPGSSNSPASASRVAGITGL
- TEST_DESCRIPTION: HPK1 Cellular HiBit Degradation Assay
- Format: cell-based
- ASSAY_SETUP: Jurkat, HiBiT HPK1 Jurkat cells, 24 hrs; maximum degradation vs DMSO vehicle control; read-out: Dmax Category
Attribute: Dmax

Check out these entries, answers already filled in.
MOLECULE	TARGET_UNDER_TEST	Dmax
CC(C)n1cnc2cc(-c3ccc4c(c3)N([C@H]3C[C@@H](N5CCCCC5)C3)C(=O)C43CCN(C(=O)C4C5CN(C(=O)C6CCN(c7ccc(C8CCC(=O)NC8=O)cn7)CC6)CC54)CC3)nc(NC3CC3)c21 (mixture of isomers)	HPK1 (Homo sapiens, UniProt Q92918)	50 to 70%
CC(C)n1cnc2cc(-c3ccc4c(c3)N([C@H]3C[C@@H](N5CCCCC5)C3)C(=O)C43CCN(C(=O)[C@@H]4CCN(C(=O)[C@H]5CC[C@H](Nc6cccc7c6n(C)c(=O)n7C6CCC(=O)NC6=O)CC5)C4)CC3)nc(Nc3ccccc3F)c21 (mixture of isomers)	HPK1 (Homo sapiens, UniProt Q92918)	50 to 70%
CC(C)n1cnc2cc(-c3ccc4c(c3)N([C@H]3C[C@@H](N5CCCCC5)C3)C(=O)C43CCN(C(=O)[C@H]4CCN(C(=O)C5CCN(c6ccc(C7CCC(=O)NC7=O)cn6)CC5)C4)CC3)nc(Nc3ccncc3F)c21 (mixture of isomers)	HPK1 (Homo sapiens, UniProt Q92918)	50 to 70%
CC(C)n1cnc2cc(-c3ccc4c(c3)N([C@H]3C[C@@H](N5CCCCC5)C3)C(=O)C43CCN(C(=O)C4(C)CCN(C(=O)CN5CCN(c6ccc(C7CCC(=O)NC7=O)cn6)CC5)CC4)CC3)nc(NC3CC3)c21 (mixture of isomers)	HPK1 (Homo sapiens, UniProt Q92918)	50 to 70%
CC(C)n1cnc2cc(-c3ccc4c(c3)N([C@H]3C[C@@H](N5CCCCC5)C3)C(=O)C43CCN(C(=O)[C@@H]4CCN(C(=O)[C@H]5CC[C@H](Nc6ccc(C7CCC(=O)NC7=O)cn6)CC5)C4)CC3)nc(NC3CC3)c21 (mixture of isomers)	HPK1 (Homo sapiens, UniProt Q92918)	70 to 85%

Please provide the recorded Dmax for CC(C)n1cnc2cc(-c3ccc4c(c3)N([C@H]3C[C@@H](N5CCCCC5)C3)C(=O)C43CCN(C(=O)C4CCN(C[C@H]5CC[C@H](C(=O)N6CCc7cc(C8CCC(=O)NC8=O)ccc7C6)CC5)CC4)CC3)nc(Nc3ccccc3F)c21 (mixture of isomers) , tested on HPK1 (Homo sapiens, UniProt Q92918). > 85%

Please provide the recorded Dmax for CC(C)n1cnc2cc(-c3ccc4c(c3)N([C@H]3C[C@@H](N5CCCCC5)C3)C(=O)C43CCN(C(=O)[C@@H]4CCN(C(=O)C5CCN(c6ccc(C7CCC(=O)NC7=O)cn6)CC5)[C@H](C)C4)CC3)nc(NC3CC3)c21 (mixture of isomers) , tested on HPK1 (Homo sapiens, UniProt Q92918). 70 to 85%
